Reported IC50 on Receptor tyrosine-protein kinase erbB-4 (Homo sapiens, UniProt Q15303) for assorted compounds, compiled from publications.
Sequence (Q15303 whole entry): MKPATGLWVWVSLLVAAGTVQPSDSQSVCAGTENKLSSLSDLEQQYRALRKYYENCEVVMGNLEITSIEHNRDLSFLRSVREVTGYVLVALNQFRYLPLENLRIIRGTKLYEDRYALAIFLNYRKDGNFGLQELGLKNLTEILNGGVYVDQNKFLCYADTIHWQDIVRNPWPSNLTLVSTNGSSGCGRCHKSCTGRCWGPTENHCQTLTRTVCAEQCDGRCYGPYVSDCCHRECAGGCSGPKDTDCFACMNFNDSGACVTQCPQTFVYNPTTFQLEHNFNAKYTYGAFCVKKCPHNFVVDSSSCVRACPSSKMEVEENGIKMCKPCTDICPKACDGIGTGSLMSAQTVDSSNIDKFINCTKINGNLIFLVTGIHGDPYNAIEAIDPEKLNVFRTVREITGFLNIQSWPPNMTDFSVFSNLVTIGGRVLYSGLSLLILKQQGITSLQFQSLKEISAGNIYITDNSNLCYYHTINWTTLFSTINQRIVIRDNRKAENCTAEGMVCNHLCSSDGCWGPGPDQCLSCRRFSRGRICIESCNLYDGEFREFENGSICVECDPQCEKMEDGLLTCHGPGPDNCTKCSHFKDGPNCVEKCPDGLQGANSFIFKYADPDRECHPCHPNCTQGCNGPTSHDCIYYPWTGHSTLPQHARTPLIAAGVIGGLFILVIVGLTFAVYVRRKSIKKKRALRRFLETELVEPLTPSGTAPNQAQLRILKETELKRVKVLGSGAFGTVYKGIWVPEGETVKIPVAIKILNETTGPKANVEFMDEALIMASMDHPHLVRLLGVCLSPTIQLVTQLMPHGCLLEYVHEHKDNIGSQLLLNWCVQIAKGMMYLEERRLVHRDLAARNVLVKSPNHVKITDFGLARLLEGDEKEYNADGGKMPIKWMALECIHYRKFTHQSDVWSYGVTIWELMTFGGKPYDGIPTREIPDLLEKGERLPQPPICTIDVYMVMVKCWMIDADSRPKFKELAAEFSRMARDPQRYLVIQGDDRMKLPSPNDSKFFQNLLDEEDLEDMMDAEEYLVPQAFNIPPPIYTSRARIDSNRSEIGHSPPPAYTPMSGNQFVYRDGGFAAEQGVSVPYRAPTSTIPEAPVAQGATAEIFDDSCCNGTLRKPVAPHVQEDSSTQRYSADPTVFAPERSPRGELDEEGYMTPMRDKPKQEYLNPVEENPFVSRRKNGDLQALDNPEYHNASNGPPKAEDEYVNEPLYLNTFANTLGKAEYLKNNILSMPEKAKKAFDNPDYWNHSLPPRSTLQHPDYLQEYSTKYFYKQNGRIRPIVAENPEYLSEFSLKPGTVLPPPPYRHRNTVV
Give just the numeric value; nM need not be written.

Answered cases to consult:
O=C(C#CCCN1CCOCC1)Nc1ccc2ncnc(Nc3ccc(F)c(Cl)c3)c2c1 | 4.3
Nc1nccn2c([C@H]3CN(C4CCOCC4)CCO3)nc(-c3ccc(C(=O)Nc4cc(C(F)(F)F)ccn4)cc3F)c12 | 76
Cc1ccccc1Nc1nc2cc(F)c(N(C)C(=O)/C=C/CN(C)C)cc2n2cncc12 | 43.7
CCN(CC)CC#CC(=O)Nc1cc2c(Nc3ccc(F)c(Cl)c3)ncnc2cn1 | 644
CCN(CC)CCC#CC(=O)Nc1ccc2ncnc(Nc3ccc(F)c(Cl)c3)c2c1 | 16

Problem: Fill blank: measured IC50 of the compound `CN1CCN(CCC#CC(=O)Nc2cc3c(Nc4ccc(F)c(Cl)c4)ncnc3cn2)CC1` is ____.
Result: 1.2

Problem: Also `CCCCN(CC#CC(=O)Nc1cc2c(Nc3ccc(F)c(Cl)c3)ncnc2cn1)CCCC` , if possible.
Result: 73

Problem: Also `CC(C)(C)/C=C(\C#N)C(=O)N1CCC[C@@H](n2nc(-c3ccc(Oc4ccccc4)cc3F)c3c(N)ncnc32)C1` , if possible.
Result: 22

Problem: Also `CC(C)c1nc(-c2ccc(F)c(NS(=O)(=O)c3c(F)cccc3F)c2)c(-c2ccnc(Nc3ccc(N4CCOCC4)nc3)n2)s1` , if possible.
Result: 10

---

Reported pIC50 on UniProtKB Q15303 for assorted molecules, compiled from publications.
Conceptually, pIC50 converts a concentration in mol/L into minus its log10.

Answered cases to consult:
CC1(C)OC(=O)N2C[C@H](c3nc(-c4ccc(C(=O)Nc5cc(C(F)(F)F)ccn5)cc4)c4c(N)nccn34)CC[C@H]21 | 7.64
O=C(C#CCN1CCOCC1)Nc1cc2c(Nc3ccc(F)c(Cl)c3)ncnc2cn1 | 8.21

Shifting focus to the molecule that follows.
Problem: Fill blank: measured pIC50 of the molecule `C=CC(=O)Nc1ccc2ncnc(Nc3cccc(Br)c3)c2c1` is ____.
Result: 7.92

---

Reported IC50 on Receptor tyrosine-protein kinase erbB-4 (Homo sapiens, UniProt Q15303) for assorted compounds, compiled from publications.
Give just the numeric value; nM need not be written.

O=C(NCCO)C1=Cc2c(ncnc2Nc2ccc(Oc3cccc4sccc34)c(Cl)c2)NCC1 | 240

Problem: Fill blank: measured IC50 of the compound `Nc1ncnc2c1c(-c1ccc(Oc3ccccc3)cc1)cn2C[C@H]1CCCN1C[C@@H]1CO1` is ____.
Result: 385

Problem: Also `CC(C)(C(=O)NCCn1ccc2ncnc(Nc3ccc(Oc4cccc(Cl)c4)c(Cl)c3)c21)S(C)(=O)=O.Cc1ccc(S(=O)(=O)O)cc1` , if possible.
Result: 160

Problem: Also `CC(C)C(=O)N1CCC[C@@H](c2nc(-c3ccc(C(=O)Nc4cc(C(F)(F)F)ccn4)cc3F)c3c(N)nccn23)C1` , if possible.
Result: 230

---

Reported pIC50 on Receptor tyrosine-protein kinase erbB-4 (Homo sapiens) for assorted compounds, compiled from publications.
Conceptually, pIC50 converts a concentration in mol/L into minus its log10.

Answered cases to consult:
O=C(C#CCO)Nc1ccc2ncnc(Nc3ccc(F)c(Cl)c3)c2c1 | 8.14
C[C@@H]1COC(Nc2ccc3ncnc(Nc4ccc(OCc5nccs5)c(Cl)c4)c3c2)=N1 | 8.40
CC(C)(/C=C(/C#N)C(=O)N1CCC[C@@H]1Cn1nc(-c2ccc(Oc3ccccc3)cc2F)c2c(N)ncnc21)N1CCOCC1 | 6.75

Problem: Fill blank: measured pIC50 of the compound `CC#CC(=O)Nc1cc2c(Nc3ccc(F)c(Cl)c3)ncnc2cn1` is ____.
Result: 9.30

Problem: Also `CCCCN(CC#CC(=O)Nc1ccc2ncnc(Nc3ccc(F)c(Cl)c3)c2c1)CCCC` , if possible.
Result: 6.20

Problem: Also `C=CC(=O)NCC(=O)Nc1cccc(Nc2ncc(NC(=O)c3cc(NC(=O)c4cccc(C(F)(F)F)c4)ccc3C)cn2)c1` , if possible.
Result: 8.48

Problem: Also `COCC(=O)N1CCO[C@@H](c2nc(-c3ccc(C(=O)Nc4cc(C(F)(F)F)ccn4)cc3F)c3c(N)nccn23)C1` , if possible.
Result: 6.77

Problem: Also `CCN(CC)CC#CC(=O)Nc1ccc2ncnc(Nc3ccc(F)c(Cl)c3)c2c1` , if possible.
Result: 6.51
